molecular target: T1, Peptide A (human PAR-2), unbiotinylated (Human); experiment: peptide ELISA titration
T1 construct: also called Peptide A No Biotin
T1 peptide: GTNRSSKGRSLIGKVDGT

[
  {
    "binder": "H4H580P (antibody, human IgG4, V domains shown, also called H1H580P variable regions) VH: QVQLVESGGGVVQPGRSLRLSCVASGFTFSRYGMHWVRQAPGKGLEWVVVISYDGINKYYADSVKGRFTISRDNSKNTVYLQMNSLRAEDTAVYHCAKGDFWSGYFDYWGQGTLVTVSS VL: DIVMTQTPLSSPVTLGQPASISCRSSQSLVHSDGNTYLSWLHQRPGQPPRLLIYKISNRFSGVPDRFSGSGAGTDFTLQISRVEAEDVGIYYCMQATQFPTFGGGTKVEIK",
    "EC50 (nM)": 0.09
  },
  {
    "binder": "H4H581P (antibody, human IgG4, V domains shown, also called mAb H4H581P; H1H581P variable regions) VH: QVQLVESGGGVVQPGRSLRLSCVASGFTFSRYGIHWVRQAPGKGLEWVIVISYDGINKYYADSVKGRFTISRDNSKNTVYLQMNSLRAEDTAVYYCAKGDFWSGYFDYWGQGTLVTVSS VL: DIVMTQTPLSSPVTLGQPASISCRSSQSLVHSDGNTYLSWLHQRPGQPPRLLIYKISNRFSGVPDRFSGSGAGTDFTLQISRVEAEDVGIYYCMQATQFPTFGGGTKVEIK",
    "EC50 (nM)": 0.012
  },
  {
    "binder": "H4H583P (antibody, human IgG4, V domains shown, also called H1H583P variable regions) VH: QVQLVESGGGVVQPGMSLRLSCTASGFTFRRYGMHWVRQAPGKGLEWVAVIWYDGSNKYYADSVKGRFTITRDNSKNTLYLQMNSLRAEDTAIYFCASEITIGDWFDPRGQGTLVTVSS VL: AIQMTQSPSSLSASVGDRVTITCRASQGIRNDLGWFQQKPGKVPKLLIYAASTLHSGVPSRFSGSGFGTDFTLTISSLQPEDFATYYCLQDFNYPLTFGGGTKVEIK",
    "EC50 (nM)": 0.008
  },
  {
    "binder": "H4H578P (antibody, human IgG4, V domains shown, also called H1H578P variable regions) VH: QVQLVESGGGVVQPGMSLRLSCAASGFTFRRYGMHWVRQAPGKGLEWVAVIWYDGSNKYYVDSVKGRFTISRDNSKNTLYLQMNSLRAEDTAVYYCASEITVGDWFDPWGQGTLVTVSS VL: AIQMTQSPSSLSASVGDRVTITCRASQGIRNDLGWYQQKPGKAPKLLIYAASSLHSGVPSRFSGSGSGTDFTLTISSLQPEDFATYYCLQDFNYPLTFGGGTKVEIK",
    "EC50 (nM)": 0.034
  }
]

# credit: patent US20110059095A1
